# assayedTarget: human MC3R (human, UniProt P41968 1-323)
# Sequence (P41968 whole entry): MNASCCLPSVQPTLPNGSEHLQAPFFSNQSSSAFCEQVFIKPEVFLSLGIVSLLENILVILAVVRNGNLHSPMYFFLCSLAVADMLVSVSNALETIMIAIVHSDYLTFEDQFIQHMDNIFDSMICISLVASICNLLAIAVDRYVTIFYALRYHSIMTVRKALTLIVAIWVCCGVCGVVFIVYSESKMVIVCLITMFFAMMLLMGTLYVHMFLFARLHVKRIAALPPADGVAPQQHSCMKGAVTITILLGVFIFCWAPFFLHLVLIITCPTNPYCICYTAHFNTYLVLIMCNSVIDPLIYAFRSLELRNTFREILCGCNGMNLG
# protocolText: cell-based or functional assay
Non-standard residues stand in square brackets, D forms with d. PKcap2 = N-terminal cap Aryl(4-I)-Gly-mPEG2; Phe(4-I) = N[C@@H](Cc1ccc(I)cc1)C(=O)O; NMeY = CN[C@@H](Cc1ccc(O)cc1)C(=O)O; Nle = CCCC[C@H](N)C(=O)O; R1 = not defined here
measuredMetric: MC3R cAMP (EC50) (nM)
Lab book: enter the figure in nM, no units written.

[[record]]
binder = "Ac-[Nle][dA]R[Phe(4-I)]R[dW]DRFG-OH (SMILES CCCC[C@H](NC(C)=O)C(=O)N[C@H](C)C(=O)N[C@@H](CCCNC(=N)N)C(=O)N[C@@H](Cc1ccc(I)cc1)C(=O)N[C@@H](CCCNC(=N)N)C(=O)N[C@H](Cc1c[nH]c2ccccc12)C(=O)N[C@@H](CC(=O)O)C(=O)N[C@@H](CCCNC(=N)N)C(=O)N[C@@H](Cc1ccccc1)C(=O)NCC(=O)O) [CTX-1197]"
measuredmetric = "MC3R cAMP (EC50)"
assayresult = 13.5

[[record]]
binder = "H-[NMeY]V[Nle][dA]HFR[dW]D-NH2 (SMILES CCCC[C@H](NC(=O)[C@@H](NC(=O)[C@H](Cc1ccc(O)cc1)NC)C(C)C)C(=O)N[C@H](C)C(=O)N[C@@H](Cc1c[nH]cn1)C(=O)N[C@@H](Cc1ccccc1)C(=O)N[C@@H](CCCNC(=N)N)C(=O)N[C@H](Cc1c[nH]c2ccccc12)C(=O)N[C@@H](CC(=O)O)C(N)=O) [CTX-1141]"
measuredmetric = "MC3R cAMP (EC50)"
assayresult = 2.2

[[record]]
binder = "H-YV[Nle][dF]HFR[dW]D-NH2 (SMILES CCCC[C@H](NC(=O)[C@@H](NC(=O)[C@@H](N)Cc1ccc(O)cc1)C(C)C)C(=O)N[C@H](Cc1ccccc1)C(=O)N[C@@H](Cc1c[nH]cn1)C(=O)N[C@@H](Cc1ccccc1)C(=O)N[C@@H](CCCNC(=N)N)C(=O)N[C@H](Cc1c[nH]c2ccccc12)C(=O)N[C@@H](CC(=O)O)C(N)=O) [CTX-1132]"
measuredmetric = "MC3R cAMP (EC50)"
assayresult = 3.9

[[record]]
binder = "PKcap2-G[dY]V[Nle][dA]HFR[dW]D[dR]FG-OH [CTX-1156]"
measuredmetric = "MC3R cAMP (EC50)"
assayresult = 8.6

[[record]]
binder = "Ac-[Nle][dA]HFR[dW]DR[dF]K(R1)-OH (reading uncertain) [CTX-1161]"
measuredmetric = "MC3R cAMP (EC50)"
assayresult = 952


**Q:** If you can, please state the reported MC3R cAMP (EC50) value of Ac-[Nle][dA]HFR[dW]DR-NH2 (SMILES CCCC[C@H](NC(C)=O)C(=O)N[C@H](C)C(=O)N[C@@H](Cc1c[nH]cn1)C(=O)N[C@@H](Cc1ccccc1)C(=O)N[C@@H](CCCNC(=N)N)C(=O)N[C@H](Cc1c[nH]c2ccccc12)C(=O)N[C@@H](CC(=O)O)C(=O)N[C@@H](CCCNC(=N)N)C(N)=O) [CTX-1163] .
**A:** 19.4
